For each record, write down the corresponding Kd.
- target: T1, Human GUCY2C full length (SEQ ID NO: 224), recombinant protein (human, UniProt P25092 24-430, limits assumed)
- T1 construct: also called huGUCY2C; biotinylated human GUCY2c
- T1 sequence (P25092 24-430 F281L limits assumed): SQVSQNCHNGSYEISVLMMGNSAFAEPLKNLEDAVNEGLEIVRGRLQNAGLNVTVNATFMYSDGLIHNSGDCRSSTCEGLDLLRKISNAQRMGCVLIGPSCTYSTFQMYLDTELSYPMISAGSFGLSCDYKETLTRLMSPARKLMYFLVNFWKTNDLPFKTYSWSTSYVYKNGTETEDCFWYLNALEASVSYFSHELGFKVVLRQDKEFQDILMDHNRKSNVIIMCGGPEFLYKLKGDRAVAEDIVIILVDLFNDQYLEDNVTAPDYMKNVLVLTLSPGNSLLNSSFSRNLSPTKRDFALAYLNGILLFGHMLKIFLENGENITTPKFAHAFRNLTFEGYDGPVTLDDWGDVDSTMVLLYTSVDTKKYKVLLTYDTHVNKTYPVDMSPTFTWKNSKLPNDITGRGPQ
- assay-protocol: SPR, IgG captured by anti-human Fc
Value and unit, in that order.

input: Quick one: give measured Kd for GUCY2C-0241 (antibody, human IgG1, kappa, V domains shown, humanized IgG1; used as scFv on phage in the binary substitution library) VH: EVQLVESGGGLVQPGGSLRLSCAASGYTFTSYWMHWVRQAPGKGLEWIGEIKPSNGLTNYIEKFKNRFTISVDKAKNSAYLQMNSLRAEDTAVYYCTRTITTTEGYWFFDVWGQGTLVTVSS VL: DIQLTQSPSSLSASVGDRVTITCRASESVDYYGTSLMQWYQQKPGKAPKLLIYAASNVESGVPSRFSGSGSGTDFTLTISSLQPEDFATYYCQQTRKVYTFGQGTKLEIKR
output: 9.81 nM

input: Hello, please tell me recorded Kd for this one: GUCY2C-0212 (antibody, human IgG1, V domains shown) VH: EVQLVESGGGLVQPGGSLRLSCAASGYTFTSYWMHWVRQAPGKGLEWIGEIKPSNGLTNYIEKFKNRFTISRDNAKNSLYLQMNSLRAEDTAVYYCARTITTTEGYWFFDVWGQGTLVTVSS VL: DIQLTQSPSSLSASVGDRVTITCRASESVDYYGTSLMQWYQQKPGKAPKLLIYAASNVESGVPSRFSGSGSGTDFTLTISSLQPEDFATYYCQQTRKVYTFGQGTKLEIK
output: 26 nM

input: Give me measured Kd, please, for this binder: GUCY2C-0486 (antibody, human IgG1, kappa, V domains shown) VH: EVQLVESGGGLVQPGGSLRLSCAASGYTFTSYWMHWVRQAPGKGLEWIGEIKPSNGLTNVHEKFKNRFTISVDKAKNSAYLQMNSLRAEDTAVYYCTRTITTTEGYWFFDVWGQGTLVTVSS VL: DIQLTQSPSSLSASVGDRVTITCRASESVDYYGSSLLQWYQQKPGKAPKLLIYAASKLASGVPSRFSGSGSGTDFTLTISSLQPEDFATYYCQQTRKAYTFGQGTKLEIKR
output: 5.47 nM

input: Quote Kd reported for GUCY2C-0210 (antibody, human IgG1, V domains shown) VH: EVQLVESGGGLVQPGGSLRLSCAASGYTFTSYWMHWVRQAPGKGLEWIAEIKPSNGLTNYIEKFKNRFTISRDNAKNSLYLQMNSLRAEDTAVYYCARTITTTEGYWFFDVWGQGTLVTVSS VL: DIQLTQSPSSLSASVGDRVTITCRASESVDYYGTSLMQWYQQKPGKAPKLLIYAASNVESGVPSRFSGSGSGTDFTLTISSLQPEDFATYYCQQTRKVYTFGQGTKLEIK please.
output: 85.7 nM

Data provenance: patent US20230340151A1
